- ASSAYED_TARGET: recombinant human PIM2 (Homo sapiens (Human))
- Sequence (Q9P1W9 whole entry): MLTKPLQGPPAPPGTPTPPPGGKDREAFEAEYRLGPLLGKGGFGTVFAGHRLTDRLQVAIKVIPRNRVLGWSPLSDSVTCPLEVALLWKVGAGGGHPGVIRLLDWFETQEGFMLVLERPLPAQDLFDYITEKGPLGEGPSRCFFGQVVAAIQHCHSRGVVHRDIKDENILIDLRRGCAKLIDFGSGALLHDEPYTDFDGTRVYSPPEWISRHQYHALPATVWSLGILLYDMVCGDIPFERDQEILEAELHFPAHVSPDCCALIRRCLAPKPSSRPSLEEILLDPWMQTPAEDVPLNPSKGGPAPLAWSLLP
- METHOD_DESCRIPTION: PIM-2 assay (33P-ATP filter binding)
- Format: biochemical
- ASSAY_CONDITIONS: PIM2: IC50 (5 μM ATP), 5 μM ATP
pIC50: −log10 of the molar value.

{"CPD_SMILES": "O=C1NC(=O)/C(=C/c2cnn3c(NC4CC4)cc(-c4cccc(OCC5CC5)c4)nc23)N1", "BOUND_TYPE": "<", "pIC50": 5.60}
{"CPD_SMILES": "CN1C(=O)S/C(=C\\c2cnn3c(NC4CC4)cc(Nc4cccc(Cl)c4)nc23)C1=O", "BOUND_TYPE": "<", "pIC50": 5.60}
{"CPD_SMILES": "O=C1NC(=O)/C(=C/c2cnn3c(NCc4ccncc4)cc(Nc4cccc(Cl)c4)nc23)N1", "BOUND_TYPE": "=", "pIC50": 5.87}
{"CPD_SMILES": "O=C1NC(=O)/C(=C/c2cnn3c(NC4CC4)cc(N4CCN(c5ccccn5)CC4)nc23)S1", "BOUND_TYPE": "=", "pIC50": 5.74}
{"CPD_SMILES": "CC(C)Oc1cccc(Nc2cc(NC3CC3)n3ncc(/C=C4\\NC(=O)NC4=O)c3n2)c1", "BOUND_TYPE": "<", "pIC50": 5.60}
{"CPD_SMILES": "Nc1cc(Nc2cccc(Cl)c2)nc2c(/C=C3\\NC(=O)NC3=O)cnn12", "BOUND_TYPE": "=", "pIC50": 5.93}
{"CPD_SMILES": "NCc1cccc(-c2cc(NC3CC3)n3ncc(/C=C4\\SC(=O)NC4=O)c3n2)c1", "BOUND_TYPE": "=", "pIC50": 6.70}
{"CPD_SMILES": "O=C1NC(=O)/C(=C/c2cnn3c(NC4CC4)cc(Nc4ccc(F)cc4Cl)nc23)N1", "BOUND_TYPE": "<", "pIC50": 5.60}

###

- ASSAYED_TARGET: recombinant human PIM2 (Homo sapiens (Human))
- METHOD_DESCRIPTION: PIM-2 assay (33P-ATP filter binding)
- Type: biochemical
- ASSAY_CONDITIONS: PIM2: IC50 (5 μM ATP), 5 μM ATP
Below is a list of entries, each paired with its recorded IC50 value.

{"CPD_SMILES": "CC(C)Nc1cc(Nc2cccc(Cl)c2)nc2c(/C=C3\\NC(=O)NC3=O)cnn12", "BOUND_TYPE": ">", "IC50, nM": 2500}
{"CPD_SMILES": "O=C1NC(=O)/C(=C/c2cnn3c(NC4CCNCC4)cc(Nc4cccc(Cl)c4)nc23)N1", "BOUND_TYPE": "=", "IC50, nM": 2450}
{"CPD_SMILES": "O=C1NC(=O)/C(=C/c2cnn3c(NCc4cccnc4)cc(Nc4cccc(Cl)c4)nc23)N1", "BOUND_TYPE": "=", "IC50, nM": 704}
{"CPD_SMILES": "CN(C)c1ccc(-c2cc(NC3CC3)n3ncc(/C=C4\\NC(=O)NC4=O)c3n2)cc1", "BOUND_TYPE": ">", "IC50, nM": 2500}
{"CPD_SMILES": "CC(C)(C)C(=O)N1CCC(Nc2cc(Nc3cccc(Cl)c3)nc3c(/C=C4\\NC(=O)NC4=O)cnn23)CC1", "BOUND_TYPE": ">", "IC50, nM": 2500}
{"CPD_SMILES": "O=C1NC(=O)/C(=C/c2cnn3c(NCC4(CO)CCCC4)cc(Nc4cccc(Cl)c4)nc23)N1", "BOUND_TYPE": "=", "IC50, nM": 1120}
{"CPD_SMILES": "CN(C)CC(C)(C)CNc1cc(Nc2cccc(Cl)c2)nc2c(/C=C3\\NC(=O)NC3=O)cnn12", "BOUND_TYPE": ">", "IC50, nM": 2500}
{"CPD_SMILES": "O=C1NC(=O)/C(=C/c2cnn3c(NC4CC4)cc(-c4cccc(OCC5=NCCN5)c4)nc23)N1", "BOUND_TYPE": "=", "IC50, nM": 1310}

###

Below is a list of entries, each paired with its recorded log10 of IC50 value.
- Test system: BxPC3 human pancreatic adenocarcinoma cells
- METHOD_DESCRIPTION: Cell proliferation assay with Alamar Blue (AB), BxPC3
- Type: cell-based
- ASSAY_CONDITIONS: Homo sapiens, BXPC-3, read-out: AB: BxPC3
ASSAY_READOUT: log10 of IC50 (log10 of the value in µM)

{"COMPOUND": "COc1cccc(-c2cc(NC3CC3)n3ncc(/C=C4\\NC(=O)NC4=O)c3n2)c1", "log10 of IC50": 0.24}
{"COMPOUND": "CN(C)c1ccc(-c2cc(NC3CC3)n3ncc(/C=C4\\NC(=O)NC4=O)c3n2)cn1", "log10 of IC50": -0.26}
{"COMPOUND": "O=C1NC(=O)/C(=C/c2cnn3c(NC4CCN(CCO)CC4)cc(Nc4cccc(Cl)c4)nc23)N1", "log10 of IC50": 1.22}
{"COMPOUND": "O=C1NC(=O)/C(=C/c2cnn3c(NC4CC4)cc(Nc4ccc(F)cc4Cl)nc23)N1", "log10 of IC50": 0.13}
{"COMPOUND": "O=C1NC(=O)/C(=C/c2cnn3c(NC4CC4)cc(-c4cccc(NS(=O)(=O)C5CC5)c4)nc23)N1", "log10 of IC50": 1.46}
{"COMPOUND": "O=C1NC(=O)/C(=C/c2cnn3c(NCC4CC4)cc(Nc4cccnc4)nc23)N1", "log10 of IC50": 0.79}
{"COMPOUND": "O=C1NC(=O)/C(=C/c2cnn3c(NC4CCNC4)cc(Nc4cccc(Cl)c4)nc23)N1 (stereo not drawn)", "log10 of IC50": 0.21}
{"COMPOUND": "N#Cc1cccc(-c2cc(NC3CC3)n3ncc(/C=C4\\NC(=O)NC4=O)c3n2)c1", "log10 of IC50": 1.37}
{"COMPOUND": "O=C1NC(=O)/C(=C/c2cnn3c(NC4CC4)cc(-c4ccncc4)nc23)N1", "log10 of IC50": -0.13}
{"COMPOUND": "CCCS(=O)(=O)Nc1cccc(-c2cc(NC3CC3)n3ncc(/C=C4\\NC(=O)NC4=O)c3n2)c1", "log10 of IC50": 0.44}
{"COMPOUND": "O=C1NC(=O)/C(=C/c2cnn3c(NC4CC4)cc(Nc4cccc(OC(F)(F)F)c4)nc23)N1 [Example E1]", "log10 of IC50": 1.23}
{"COMPOUND": "N#Cc1cccc(Cc2cc(NC3CC3)n3ncc(/C=C4\\NC(=O)NC4=O)c3n2)c1", "log10 of IC50": 1.29}
{"COMPOUND": "COC(=O)Nc1cc(NC2CC2)n2ncc(/C=C3\\NC(=O)NC3=O)c2n1", "log10 of IC50": 0.96}
{"COMPOUND": "NCc1cccc(-c2cc(NC3CC3)n3ncc(/C=C4\\SC(=O)NC4=O)c3n2)c1", "log10 of IC50": 1.28}
{"COMPOUND": "O=C1NC(=O)/C(=C/c2cnn3c(NC4CC4)cc(-c4cccc(CO)c4)nc23)N1", "log10 of IC50": 0.71}
{"COMPOUND": "O=C1NC(=O)/C(=C/c2cnn3c(NC4CC4)cc(-c4cccc(O)c4)nc23)N1", "log10 of IC50": 1.03}
{"COMPOUND": "CN(c1cccc(-c2cc(NC3CC3)n3ncc(/C=C4\\NC(=O)NC4=O)c3n2)c1)S(C)(=O)=O", "log10 of IC50": 0.73}
{"COMPOUND": "O=C1NC(=O)/C(=C/c2cnn3c(NC4CC4)cc(-c4cccc(C(F)(F)F)c4)nc23)N1", "log10 of IC50": 1.10}
{"COMPOUND": "CCOCCNc1cc(Nc2cccc(Cl)c2)nc2c(/C=C3\\NC(=O)NC3=O)cnn12", "log10 of IC50": 0.58}
{"COMPOUND": "O=C1NC(=O)/C(=C/c2cnn3c(NC4CC4)cc(NN4CCOCC4)nc23)N1", "log10 of IC50": 0.59}
{"COMPOUND": "O=C1NC(=O)/C(=C/c2cnn3c(NC4CC4)cc(-c4cccc(OCC5=NCCN5)c4)nc23)N1", "log10 of IC50": 0.41}
{"COMPOUND": "O=C1NC(=O)/C(=C/c2cnn3c(NC4CC4)cc(Nc4cccc(Cl)c4)nc23)N1", "log10 of IC50": 1.18}
{"COMPOUND": "COc1cccc(Nc2cc(NC3CC3)n3ncc(/C=C4\\NC(=O)NC4=O)c3n2)c1", "log10 of IC50": 0.76}
{"COMPOUND": "O=C1NC(=O)/C(=C/c2cnn3c(NCC4CC4)cc(Nc4ccc(Cl)nc4)nc23)N1", "log10 of IC50": 0.90}
{"COMPOUND": "Cc1ccc(Nc2cc(NCC3CC3)n3ncc(/C=C4\\NC(=O)NC4=O)c3n2)nc1", "log10 of IC50": 0.96}
{"COMPOUND": "O=C1NC(=O)/C(=C/c2cnn3c(NC4CC4)cc(N4CC[C@@H](F)C4)nc23)N1 [Example P2]", "log10 of IC50": 0.33}
{"COMPOUND": "Nc1cc(NC2CC2)n2ncc(/C=C3\\NC(=O)NC3=O)c2n1", "log10 of IC50": 1.00}

Ref: patent US9303033B2
